System: Trichophyton mentagr.
READOUT LABEL: MIC (µg/mL)

Reference set (6 entries):
• CCC(C(=O)c1ccc(Oc2ccc(Cl)cc2)cc1)n1cncn1 (stereo not shown) [Beispiel 7] = 4
• CC(C)C(C(=O)c1ccc(Oc2ccc(Cl)cc2)cc1)n1cncn1 (stereo not shown) [Beispiel 13] = 4
• COCCC(C(O)c1ccc(Oc2ccc(Cl)cc2)cc1)n1cncn1 (stereo not shown) [Beispiel 39] = 4
• CC(C(O)c1ccc(Oc2ccc(Cl)cc2Cl)cc1)n1cncn1 (stereo not shown) [Beispiel 41] = 4
• OC(Cn1cncn1)c1ccc(-c2ccc(Cl)cc2)cc1 (stereo not shown) [(D), reference compound] = 4
• O=C(Cn1cncn1)c1ccc(-c2ccccc2)cc1 [(B), reference compound] = 4

a: CC=CCC(C(O)c1ccc(Oc2ccc(Cl)cc2)cc1)n1cncn1 (stereo not shown) [Beispiel 37]
b: CC(C(=O)c1ccc(Oc2ccc(Cl)cc2)cc1)n1ccnc1 (stereo not shown) [Beispiel 26]
Qu. Pick one, a or b : lowest reported MIC. // caller expects the label of the chosen entry
Ans. a
(a: 4 µg/mL, b: 8 µg/mL)

###

Tested on: Torulopsis glabrata
READOUT LABEL: MIC (µg/mL)

* CC(C(O)c1ccc(Oc2ccc(Cl)cc2)cc1)n1ccnc1 (stereo not drawn) [Beispiel 71] | 2
* C=CCC(O)(c1ccc(Oc2ccc(Cl)cc2)cc1)C(CCC)n1cncn1 (stereo not drawn) [Beispiel 46] | 8
* CC(C(=O)c1ccc(Oc2ccc(Cl)cc2)cc1)n1ccnc1 (stereo not drawn) [Beispiel 26] | 16
* OC(Cn1cncn1)c1ccc(Oc2ccc(Cl)cc2)cc1 (stereo not drawn) [Beispiel 49] | 16
* CC(C(=O)c1ccc(Oc2ccc(Cl)cc2)cc1)n1cncn1 (stereo not drawn) [Beispiel 9] | 16

I: CCCC=CC(C(O)c1ccc(Oc2ccc(Cl)cc2)cc1)n1cncn1 (stereo not drawn) [Beispiel 38]
II: CC(C)C(C(=O)c1ccc(Oc2ccc(Cl)cc2)cc1)n1ccnc1 (stereo not drawn) [Beispiel 28]
Qu. Two entries are listed, I and II . Which one carries the higher MIC? // caller expects the label of the chosen entry
Ans. I

###

Tested on: Torulopsis glabrata
MIC values, listed per item

Reference set (3 entries):
* CCCC(C(O)c1ccc(Oc2ccc(Cl)cc2Cl)cc1)n1cncn1 (stereo not drawn) | < 1 µg/mL
* CCCC(C(=O)c1ccc(Oc2ccc(Cl)cc2)cc1)n1ccnc1 (stereo not drawn) | < 1 µg/mL
* CC(n1cncn1)C(O)(Cc1ccc(Cl)cc1)c1ccc(Oc2ccc(Cl)cc2)cc1 (stereo not drawn) | < 1 µg/mL

The measured MIC that CC(n1cncn1)C(C)(O)c1ccc(Oc2ccc(Cl)cc2)cc1 (stereo not drawn) showed for Torulopsis glabrata is > 64 µg/mL

The measured MIC that CCCCC(C(=O)c1ccc(Oc2ccc(Cl)cc2)cc1)n1ccnc1 (stereo not drawn) showed for Torulopsis glabrata is < 1 µg/mL

The measured MIC that CCCC(C(O)c1ccc(Oc2ccc(Cl)cc2)cc1)n1ccnc1 (stereo not drawn) showed for Torulopsis glabrata is < 1 µg/mL

###

Test system: Trichophyton mentagr.
READOUT LABEL: MIC

Reference set (4 entries):
• Cc1cccc(Cl)c1Oc1ccc(C(O)Cn2cncn2)cc1 (centres unmarked) [Beispiel 47] = < 1 µg/mL
• CC(C(O)c1ccc(Oc2ccc(Cl)cc2)cc1)n1cncn1 (centres unmarked) [Beispiel 35] = < 1 µg/mL
• CC(C(=O)c1ccccc1)n1cncn1 (centres unmarked) [(A), reference compound] = > 64 µg/mL
• CCCCC(C(O)c1ccc(Oc2ccc(Cl)cc2)cc1)n1cncn1 (single isomer, unassigned) [Beispiel 33] = < 1 µg/mL

The measured MIC that CCCC(C(O)c1ccc(Oc2ccc(Cl)cc2)cc1)n1ccnc1 (centres unmarked) [Beispiel 74] showed for Trichophyton mentagr. is < 1 µg/mL

The measured MIC that CC(C)C(C(=O)c1ccc(Oc2ccc(Cl)cc2)cc1)n1ccnc1 (centres unmarked) [Beispiel 28] showed for Trichophyton mentagr. is < 1 µg/mL

The measured MIC that CC(n1cncn1)C(C)(O)c1ccc(Oc2ccc(Cl)cc2)cc1 (centres unmarked) [Beispiel 44] showed for Trichophyton mentagr. is < 1 µg/mL

The measured MIC that CCCC(n1cncn1)C(C)(O)c1ccc(Oc2ccc(Cl)cc2)cc1 (centres unmarked) [Beispiel 43] showed for Trichophyton mentagr. is < 1 µg/mL

The measured MIC that CC(C)C(C(O)c1ccc(Oc2ccc(Cl)cc2)cc1)n1ccnc1 (centres unmarked) [Beispiel 73] showed for Trichophyton mentagr. is 4 µg/mL

The measured MIC that CCC(C(O)c1ccc(Oc2ccc(Cl)cc2)cc1)n1ccnc1 (centres unmarked) [Beispiel 70] showed for Trichophyton mentagr. is 2 µg/mL

The measured MIC that CCCC(C(O)c1ccc(Oc2ccccc2)cc1)n1ccnc1 (centres unmarked) [Beispiel 68] showed for Trichophyton mentagr. is 4 µg/mL

The measured MIC that OC(Cn1cncn1)c1ccc(Oc2ccc(Cl)cc2)cc1 (centres unmarked) [Beispiel 49] showed for Trichophyton mentagr. is < 1 µg/mL

The measured MIC that CCCC(C(O)c1ccc(Oc2ccc(Cl)cc2Cl)cc1)n1cncn1 (centres unmarked) [Beispiel 40] showed for Trichophyton mentagr. is < 1 µg/mL

The measured MIC that CCCCC(C(=O)c1ccc(Oc2ccc(Cl)cc2)cc1)n1ccnc1 (centres unmarked) [Beispiel 27] showed for Trichophyton mentagr. is < 1 µg/mL

The measured MIC that CCC(C(=O)c1ccc(Oc2ccc(Cl)cc2)cc1)n1ccnc1 (centres unmarked) [Beispiel 24] showed for Trichophyton mentagr. is 4 µg/mL

The measured MIC that C=CCC(O)(c1ccc(Oc2ccc(Cl)cc2)cc1)C(CCC)n1cncn1 (centres unmarked) [Beispiel 46] showed for Trichophyton mentagr. is < 1 µg/mL

The measured MIC that CCCCCCCC(C(O)c1ccc(Oc2ccc(Cl)cc2)cc1)n1cncn1 (centres unmarked) [Beispiel 36] showed for Trichophyton mentagr. is < 1 µg/mL

###

Tested on: Trichophyton mentagr.
MIC values, listed per item

• OC(Cn1cncn1)c1ccc(Oc2ccc(Cl)cc2Cl)cc1 (stereo not drawn) = < 1 µg/mL

So, CC(C(O)c1ccc(Oc2ccc(Cl)cc2)cc1)n1ccnc1 (stereo not drawn) ? Its MIC was 8 µg/mL

So, CCCCC(C(O)c1ccc(Oc2ccc(Cl)cc2)cc1)n1ccnc1 (stereo not drawn) ? Its MIC was < 1 µg/mL

So, CCC(C(O)c1ccc(Oc2ccc(Cl)cc2)cc1)n1cncn1 (single isomer, unassigned) ? Its MIC was < 1 µg/mL

So, CC(C(=O)c1ccc(Oc2ccc(Cl)cc2)cc1)n1cncn1 (stereo not drawn) ? Its MIC was 2 µg/mL

So, CC(n1cncn1)C(O)(Cc1ccc(Cl)cc1)c1ccc(Oc2ccc(Cl)cc2)cc1 (stereo not drawn) ? Its MIC was 2 µg/mL

So, CC(C(O)c1ccc(Cl)cc1)n1cncn1 (stereo not drawn) [(C), reference compound] ? Its MIC was > 64 µg/mL

So, CCCC=CC(C(O)c1ccc(Oc2ccc(Cl)cc2)cc1)n1cncn1 (stereo not drawn) ? Its MIC was < 1 µg/mL

So, CCCC(C(=O)c1ccc(Oc2ccc(Cl)cc2)cc1)n1ccnc1 (stereo not drawn) ? Its MIC was < 1 µg/mL

Measured values drawn from patent EP0084597A1 for this set.
